B1: C1orf137 (parent)
chain: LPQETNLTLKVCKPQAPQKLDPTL

# Variants of: B1
# assay_overview: protein stability index of a GFP-peptide fusion (GPS, HEK-293T) (PSI 1-6); higher = more stable;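 further: lentivirally expressed fusions sorted by FACS into six bins by GFP to DsRed ratio, PSI derived from sequencing read proportions per bin multiplied by bin number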
# experimental_conditions: c terminus: a fixed tail appended
Note that class boundaries on protein stability index are class 0: < 3; class 1: ≥ 3 and < 4; class 2: ≥ 4

### Prompt // bin(item) where item = E4T
### Response class 1

### Prompt // bin(item) where item = L9R
### Response class 2

### Prompt // bin(item) where item = Q3S
### Response class 1

### Prompt // bin(item) where item = A16M
### Response class 1

### Prompt // bin(item) where item = A16C
### Response class 1

### Prompt // bin(item) where item = Q3E
### Response class 2

### Prompt // bin(item) where item = K13Q
### Response class 2

### Prompt // bin(item) where item = V11A
### Response class 2

### Prompt // bin(item) where item = K19N
### Response class 1

### Prompt // bin(item) where item = T8D
### Response class 1

### Prompt // bin(item) where item = T23K
### Response class 2

### Prompt // bin(item) where item = C12V
### Response class 1

### Prompt // bin(item) where item = E4D
### Response class 1

### Prompt // bin(item) where item = Q18D
### Response class 2

### Prompt // bin(item) where item = Q18P
### Response class 1

### Prompt // bin(item) where item = L24Q
### Response class 2

### Prompt // bin(item) where item = E4G
### Response class 1

### Prompt // bin(item) where item = L1V
### Response class 2

### Prompt // bin(item) where item = L9Q
### Response class 2

### Prompt // bin(item) where item = K19M
### Response class 1

### Prompt // bin(item) where item = P22I
### Response class 0

### Prompt // bin(item) where item = K10C
### Response class 1

### Prompt // bin(item) where item = C12R
### Response class 2

### Prompt // bin(item) where item = D21F
### Response class 0

### Prompt // bin(item) where item = L1P
### Response class 2

### Prompt // bin(item) where item = A16W
### Response class 0

### Prompt // bin(item) where item = K10F
### Response class 0

### Prompt // bin(item) where item = P14N
### Response class 2

### Prompt // bin(item) where item = K10H
### Response class 1

### Prompt // bin(item) where item = L7C
### Response class 1

### Prompt // bin(item) where item = P2G
### Response class 1

### Prompt // bin(item) where item = Q15D
### Response class 2

### Prompt // bin(item) where item = P17S
### Response class 1

### Prompt // bin(item) where item = Q18F
### Response class 0

### Prompt // bin(item) where item = P2E
### Response class 2

### Prompt // bin(item) where item = L20D
### Response class 2

### Prompt // bin(item) where item = C12D
### Response class 2

### Prompt // bin(item) where item = T8I
### Response class 0

### Prompt // bin(item) where item = L20G
### Response class 2

### Prompt // bin(item) where item = L9D
### Response class 2

### Prompt // bin(item) where item = L1N
### Response class 1

### Prompt // bin(item) where item = P2V
### Response class 1

### Prompt // bin(item) where item = P2L
### Response class 0

### Prompt // bin(item) where item = P14E
### Response class 2

### Prompt // bin(item) where item = P22E
### Response class 2

### Prompt // bin(item) where item = P14Y
### Response class 1

### Prompt // bin(item) where item = L24R
### Response class 2

### Prompt // bin(item) where item = P14Q
### Response class 2

### Prompt // bin(item) where item = T23M
### Response class 1

### Prompt // bin(item) where item = E4F
### Response class 0

### Prompt // bin(item) where item = K13H
### Response class 1

### Prompt // bin(item) where item = L20C
### Response class 2

### Prompt // bin(item) where item = K10T
### Response class 1

### Prompt // bin(item) where item = K13I
### Response class 0
